molecular target: ER β (Homo sapiens); construct: purchased Shanghai Tongwei Biotechnology Co., Ltd. (China); assay: SPR binding measurements (Biacore T200) on immobilized ER β; conditions: SPR, ER β on CM5 chip, 25°C
Sequence (Q92731 whole entry): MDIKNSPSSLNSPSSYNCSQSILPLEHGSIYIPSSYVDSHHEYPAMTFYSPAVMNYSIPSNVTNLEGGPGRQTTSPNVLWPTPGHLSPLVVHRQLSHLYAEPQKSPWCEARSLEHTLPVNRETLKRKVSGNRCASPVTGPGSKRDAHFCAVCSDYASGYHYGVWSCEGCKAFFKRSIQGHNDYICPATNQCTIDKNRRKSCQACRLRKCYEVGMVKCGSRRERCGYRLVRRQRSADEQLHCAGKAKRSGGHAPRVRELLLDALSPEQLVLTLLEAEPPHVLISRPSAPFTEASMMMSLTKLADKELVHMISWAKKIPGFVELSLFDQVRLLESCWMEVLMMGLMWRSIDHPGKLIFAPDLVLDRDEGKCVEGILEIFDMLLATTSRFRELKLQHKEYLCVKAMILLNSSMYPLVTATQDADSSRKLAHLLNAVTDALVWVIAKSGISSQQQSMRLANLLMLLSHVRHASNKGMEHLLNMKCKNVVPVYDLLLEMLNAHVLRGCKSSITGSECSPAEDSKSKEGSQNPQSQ
parameter: Rmax (RU)
Report the figure in RU without appending any unit label.

Illustrative cases are given below, each with its answer.
C[C@@H]1O[C@@H](OC[C@H]2O[C@@H](Oc3c(-c4ccc(O)c(O)c4)oc4cc(O)cc(O)c4c3=O)[C@H](O)[C@@H](O)[C@@H]2O)[C@H](O)[C@H](O)[C@H]1O: 7.78
O=C(/C=C/c1ccc(O)c(O)c1)O[C@H](Cc1ccc(O)c(O)c1)C(=O)O: 4.41

Consider now this further compound.
Prompt line: Param item = `O=C(/C=C/c1ccc(O)c2oc(-c3ccc(O)c(O)c3)cc12)O[C@H](Cc1ccc(O)c(O)c1)C(=O)O` ; retrieve measured Rmax.
Response line: 12.6
